Listed here: items and their measured kon.
system_under_test: T1, human programmed cell death protein 1 (hPD-1) C93S (aa 24-167) (Homo sapiens, UniProt Q15116, C93S)
T1 construct: made as a fusion with a TEV site and human Fc; the Fc was cut off with TEV protease; source: Expi293F, purified (Protein A, TEV cleavage of Fc, SEC; monomer fractions); not shown: Fc (human), C-terminal, cleaved
assay_notes: SPR; Carterra LSA; Fab from the ammonium sulfate precipitate of the culture supernatant immobilised on a NiHC200M chip; hPD-1 (1-1024 nM) or mPD-1-Fc (4-1024 nM) as analyte, fourfold dilution series, no regeneration; HBS-EP pH 7.4, 25 °C; medians over the spots of a construct, KD = koff/kon
cond: one partner purified
Please state the number and follow it with the unit.

toripalimab Fab H.A105Y (Fab, V domains shown, heavy chain of Sm3 with this change; numbers count from the chain's first residue; as the light chain of Sm3; source: Brevibacillus, culture supernatant (ammonium sulfate precipitate); not shown: 6xHis, C-terminal, kept; 6xHN, C-terminal, kept) VH: QGQLVQSGAEVKKPGASVKVSCKASGYTFTDYEMHWVRQAPIHGLEWIGVIESETGGTAYNQKFKGRVTITADKSTSTAYMELSSLRSEDTAVYYCAREGITTVYTTYYWYFDVWGQGTTVTVSS VL: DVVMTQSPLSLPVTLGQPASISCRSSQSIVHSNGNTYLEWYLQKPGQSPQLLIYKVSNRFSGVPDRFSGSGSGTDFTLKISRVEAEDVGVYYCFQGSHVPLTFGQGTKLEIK: 20300 M⁻¹ s⁻¹
toripalimab Fab L.L38A (Fab, V domains shown, as the heavy chain of Sm3; light chain of Sm3 with this change; numbers count from the chain's first residue; source: Brevibacillus, culture supernatant (ammonium sulfate precipitate); not shown: 6xHis, C-terminal, kept; 6xHN, C-terminal, kept) VH: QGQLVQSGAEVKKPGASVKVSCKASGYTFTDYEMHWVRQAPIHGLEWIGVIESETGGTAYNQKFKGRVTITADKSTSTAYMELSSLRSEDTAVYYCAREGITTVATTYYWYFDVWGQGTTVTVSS VL: DVVMTQSPLSLPVTLGQPASISCRSSQSIVHSNGNTYAEWYLQKPGQSPQLLIYKVSNRFSGVPDRFSGSGSGTDFTLKISRVEAEDVGVYYCFQGSHVPLTFGQGTKLEIK: 8980 M⁻¹ s⁻¹

As a next step, examine the binder that follows.
Look up kon: toripalimab Fab H.Y109A (Fab, V domains shown, heavy chain of Sm3 with this change; numbers count from the chain's first residue; as the light chain of Sm3; source: Brevibacillus, culture supernatant (ammonium sulfate precipitate); not shown: 6xHis, C-terminal, kept; 6xHN, C-terminal, kept) VH: QGQLVQSGAEVKKPGASVKVSCKASGYTFTDYEMHWVRQAPIHGLEWIGVIESETGGTAYNQKFKGRVTITADKSTSTAYMELSSLRSEDTAVYYCAREGITTVATTYAWYFDVWGQGTTVTVSS VL: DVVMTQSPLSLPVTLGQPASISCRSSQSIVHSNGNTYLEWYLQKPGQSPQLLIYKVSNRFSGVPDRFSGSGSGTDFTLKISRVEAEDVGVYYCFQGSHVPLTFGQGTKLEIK
23200 M⁻¹ s⁻¹
